Recorded IC50 values (UniProt:P49841) are given below.

Before answering, review these 5 worked examples.
O=C(NCc1cccc(F)c1)c1ccc(-c2ccnc(NCCNc3ccc([N+](=O)[O-])cn3)n2)cc1 | ≤ 10 µM
NC(=O)c1ccc(-c2ccnc(NCCCOc3cccc(Br)c3)n2)cc1 | ≤ 10 µM
CCOC(=O)c1cnc(NCCc2ccccn2)nc1-c1ccc(C#N)cc1 | ≤ 10 µM
CCc1ccc(-c2nc(N(C)CCNc3ccc(C#N)cn3)ccc2N2CCN(C)CC2=O)cc1 | ≤ 10 µM
COc1cccc(CCNc2nccc(-c3ccc(C(N)=O)cc3)n2)c1OC | ≤ 1 µM

**Q:** What IC50 appears in the records for this molecule with UniProt:P49841? COc1cccc(CCNc2nccc(-c3ccc(C(=O)NCc4cccc(Br)c4)cc3)n2)c1
**A:** ≤ 10 µM

**Q:** What IC50 appears in the records for this molecule with UniProt:P49841? CCOC(=O)c1cnc(NCCNc2ccc(C#N)cn2)nc1-c1ccc(C#N)cc1
**A:** ≤ 1 µM

**Q:** What IC50 appears in the records for this molecule with UniProt:P49841? CCOC(=O)c1cnc(NCCc2ccccn2)nc1-c1ccc(F)cc1
**A:** ≤ 10 µM

**Q:** What IC50 appears in the records for this molecule with UniProt:P49841? NC(=O)c1ccc(-c2ccnc(NCCNc3nc4ccccc4s3)n2)cc1
**A:** ≤ 10 µM

**Q:** What IC50 appears in the records for this molecule with UniProt:P49841? CCOC(=O)c1cnc(NCCNc2ccc([N+](=O)[O-])cn2)nc1-c1ccc([N+](=O)[O-])cc1
**A:** ≤ 1 µM

* * *

Recorded IC50 values (human GSK3β (Homo sapiens, UniProt P49841)) are given below.

Before answering, review these 2 worked examples.
CCOC(=O)c1cnc(NCCNc2ccc([N+](=O)[O-])cn2)nc1-c1ccc(CC)cc1 | ≤ 1 µM
CCOC(=O)c1cnc(NCCNc2ccc([N+](=O)[O-])cn2)nc1-c1cccc(C(F)(F)F)c1 | ≤ 10 µM

**Q:** What IC50 appears in the records for this molecule with human GSK3β (Homo sapiens, UniProt P49841)? Nc1nc(NCCNc2ncc(-n3cnc(-c4ccccc4)c3)c(-c3ccc(Cl)cc3Cl)n2)ccc1[N+](=O)[O-]
Sequence (P49841 whole entry): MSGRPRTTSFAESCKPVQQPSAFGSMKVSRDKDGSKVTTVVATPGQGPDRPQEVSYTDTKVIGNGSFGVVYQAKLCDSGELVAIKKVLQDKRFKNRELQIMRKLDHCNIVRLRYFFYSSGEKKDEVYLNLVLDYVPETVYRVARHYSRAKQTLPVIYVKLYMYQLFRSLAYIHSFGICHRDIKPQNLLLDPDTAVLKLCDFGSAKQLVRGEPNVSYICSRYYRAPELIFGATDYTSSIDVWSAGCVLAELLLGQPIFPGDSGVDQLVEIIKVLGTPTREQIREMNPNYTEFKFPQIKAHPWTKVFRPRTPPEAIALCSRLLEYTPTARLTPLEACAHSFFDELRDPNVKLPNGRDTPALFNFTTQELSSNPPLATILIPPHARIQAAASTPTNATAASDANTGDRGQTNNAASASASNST
**A:** ≤ 1 µM

**Q:** What IC50 appears in the records for this molecule with human GSK3β (Homo sapiens, UniProt P49841)? COc1cc(CNc2nccc(-c3ccc(C(N)=O)cc3)n2)cc(OC)c1OC
**A:** ≤ 10 µM

**Q:** What IC50 appears in the records for this molecule with human GSK3β (Homo sapiens, UniProt P49841)? Oc1ccc(-c2ccnc(NCCCc3nc(Cl)c(Cl)[nH]3)n2)cc1
**A:** ≤ 1 µM

**Q:** What IC50 appears in the records for this molecule with human GSK3β (Homo sapiens, UniProt P49841)? Cc1cn(-c2ccc(NCCNc3ccc([N+](=O)[O-])c(N)n3)nc2-c2ccc(Cl)cc2Cl)cn1
**A:** ≤ 1 µM

**Q:** What IC50 appears in the records for this molecule with human GSK3β (Homo sapiens, UniProt P49841)? NC(=O)c1ccc(-c2ccnc(NCCNc3ccc(C(N)=S)cn3)n2)cc1
**A:** ≤ 1 µM

**Q:** What IC50 appears in the records for this molecule with human GSK3β (Homo sapiens, UniProt P49841)? N#Cc1cccc(-c2nc(NCCNc3ccc([N+](=O)[O-])cn3)nc(-c3ccc([N+](=O)[O-])cc3)c2C(=O)O)c1
**A:** ≤ 10 µM

**Q:** What IC50 appears in the records for this molecule with human GSK3β (Homo sapiens, UniProt P49841)? O=C(NCc1cccc(I)c1)c1ccc(-c2ccnc(NCCNc3ccc([N+](=O)[O-])cn3)n2)cc1
**A:** ≤ 10 µM

**Q:** What IC50 appears in the records for this molecule with human GSK3β (Homo sapiens, UniProt P49841)? CN(C)CCCOC(=O)c1cnc(NCCNc2ccc([N+](=O)[O-])cn2)nc1-c1ccc(C#N)cc1
**A:** ≤ 1 µM

**Q:** What IC50 appears in the records for this molecule with human GSK3β (Homo sapiens, UniProt P49841)? O=C(O)c1c(-c2ccc([N+](=O)[O-])cc2)nc(NCCNc2ccc([N+](=O)[O-])cn2)nc1-c1ccc(C(F)(F)F)cc1
**A:** ≤ 10 µM

**Q:** What IC50 appears in the records for this molecule with human GSK3β (Homo sapiens, UniProt P49841)? N#Cc1ccc(-c2nc(NCCNc3ccc([N+](=O)[O-])cn3)ncc2NCc2ccccc2)cc1
**A:** ≤ 1 µM

**Q:** What IC50 appears in the records for this molecule with human GSK3β (Homo sapiens, UniProt P49841)? O=C(NCCc1ccc(Cl)cc1Cl)c1ccc(-c2ccnc(NCCNc3ccc([N+](=O)[O-])cn3)n2)cc1
**A:** ≤ 10 µM

**Q:** What IC50 appears in the records for this molecule with human GSK3β (Homo sapiens, UniProt P49841)? NC(=O)c1ccc(-c2ccnc(NCc3cccc(-c4cccc(C(F)(F)F)c4)c3)n2)cc1
**A:** ≤ 10 µM

**Q:** What IC50 appears in the records for this molecule with human GSK3β (Homo sapiens, UniProt P49841)? O=C(NCc1ccc(Cl)c(Cl)c1)c1ccc(-c2ccnc(NCCNc3ccc([N+](=O)[O-])cn3)n2)cc1
**A:** ≤ 10 µM

**Q:** What IC50 appears in the records for this molecule with human GSK3β (Homo sapiens, UniProt P49841)? CCOC(=O)c1cnc(NCCNc2ccc([N+](=O)[O-])cn2)nc1-c1ccc(C(F)(F)F)cc1
**A:** ≤ 1 µM

**Q:** What IC50 appears in the records for this molecule with human GSK3β (Homo sapiens, UniProt P49841)? O=C(NCc1ccc(F)c(F)c1)c1ccc(-c2ccnc(NCCNc3ccc([N+](=O)[O-])cn3)n2)cc1
**A:** ≤ 10 µM

* * *

Recorded IC50 values (human GSK3β (Homo sapiens, UniProt P49841)) are given below.

Before answering, review these 2 worked examples.
NC(=O)c1ccc(-c2ccnc(NCc3ccc(N)cc3)n2)cc1 | ≤ 10 µM
O=C(O)c1c(-c2ccccc2)nc(NCCNc2ccc([N+](=O)[O-])cn2)nc1-c1ccc([N+](=O)[O-])cc1 | ≤ 10 µM

**Q:** Any idea what IC50 was measured for N#Cc1ccc(-c2nc(NCCNc3ccc([N+](=O)[O-])c(N)n3)ncc2-c2ncc[nH]2)cc1 ?
**A:** ≤ 1 µM

* * *

Recorded IC50 values (UniProt:P49841) are given below.

COc1ccc(CNC(=O)c2ccc(-c3ccnc(NCCNc4ccc([N+](=O)[O-])cn4)n3)cc2)cc1 | ≤ 10 µM
CCOC(=O)c1cnc(NCCNc2ccc([N+](=O)[O-])cn2)nc1-c1cc(C(F)(F)F)cc(C(F)(F)F)c1 | ≤ 10 µM
CN(C)CCN(C)C(=O)c1cnc(NCCNc2ccc([N+](=O)[O-])cn2)nc1-c1ccc(C#N)cc1 | ≤ 1 µM
c1ccc(NCCNc2nccc(-c3cccnc3)n2)nc1 | ≤ 10 µM
FC(F)(F)Oc1ccc(-c2ccnc(NCCNc3ccccn3)n2)cc1 | ≤ 10 µM

**Q:** Any idea what IC50 was measured for CN1CC(=O)N(c2cnc(NCCNc3ccc([N+](=O)[O-])cn3)nc2-c2ccc(Cl)cc2Cl)C(=O)C1 ?
**A:** ≤ 1 µM

**Q:** Any idea what IC50 was measured for O=C(NCc1ccccc1)c1ccc(-c2ccnc(NCCc3ccccn3)n2)cc1 ?
**A:** ≤ 10 µM

**Q:** Any idea what IC50 was measured for CCOC(=O)c1cnc(NCCNc2ccc([N+](=O)[O-])cn2)nc1-c1ccc2c(c1)OCO2 ?
**A:** ≤ 1 µM

**Q:** Any idea what IC50 was measured for CN1CCN(c2cnc(NCCNc3ccc(C#N)cn3)nc2-c2ccc(Cl)cc2Cl)C(=O)C1 ?
**A:** ≤ 10 µM

**Q:** Any idea what IC50 was measured for CCOC(=O)c1cnc(NCCNc2ccc(C(F)(F)F)cn2)nc1-c1ccc(C#N)cc1 ?
**A:** ≤ 1 µM

**Q:** Any idea what IC50 was measured for Nc1nc(NCCNc2ncc(-c3ncc[nH]3)c(-c3ccc(Br)cc3Cl)n2)ccc1[N+](=O)[O-] ?
**A:** ≤ 1 µM

**Q:** Any idea what IC50 was measured for O=C(O)c1c(-c2ccc([N+](=O)[O-])cc2)nc(NCCNc2ccc([N+](=O)[O-])cn2)nc1-c1cccc(O)c1 ?
**A:** ≤ 1 µM

**Q:** Any idea what IC50 was measured for CCOC(=O)c1cnc(NCCNc2ccc([N+](=O)[O-])c(N)n2)nc1-c1ccc(Cl)cc1Cl ?
**A:** ≤ 1 µM

**Q:** Any idea what IC50 was measured for NC(=O)c1ccc(-c2ccnc(NCc3ccc(Br)cc3)n2)cc1 ?
**A:** ≤ 10 µM
